// protein stability index lookup, one value per entry
# Test method notes: protein stability index of a GFP-peptide fusion (yeast GPS) (PSI 1-4); higher = more stable; sorted into four equal gates, so the index is relative within each strain
# Measurement parameters: doa10∆

[
  {
    "Query sequence": "SLPEELKKRYDLSYNFN [YMR129W/POM152]",
    "protein stability index": 2.84
  },
  {
    "Query sequence": "EAKERYTDRDQDEVNKG [NNF1]",
    "protein stability index": 3.26
  },
  {
    "Query sequence": "LGNHAITIDSVVDANGC [YMR129W/POM152]",
    "protein stability index": 2.42
  },
  {
    "Query sequence": "YNGFIDIFSNLSSDDLL [YCS4]",
    "protein stability index": 3.16
  },
  {
    "Query sequence": "TLHLVLRLRGGIIEPSL [RPL40A]",
    "protein stability index": 2.99
  },
  {
    "Query sequence": "SNTEPIPRSNRHGSVVE [MED1]",
    "protein stability index": 2.23
  }
]

Entry source: the supplement of paper PMC9732359
